- SYSTEM: cholesterol biosynthesis (crude enzyme extracted from rat liver)
- ASSAY REMARKS: inhibition of cholesterol biosynthesis by crude enzyme extracted from rat liver (radioactive acetic acid, 37° C., 60 minutes; cholesterol precipitated with digitonin, radioactivity measured)
- Format: biochemical
Label not satisfied if I50 (concentration which gave approximately 50% inhibition of cholesterol biosynthesis) falls below 2 µg/mL; label satisfied in every other case.

Recorded results for 5 molecules are shown here.
1. CCOC(=O)CC(O)CC(O)CCc1cccc2ccccc12 (centres unmarked) :: satisfied
2. CCOC(=O)CC(O)CC(O)CCCc1c(C)ccc2ccccc12 (centres unmarked) :: not satisfied
3. CCOC(=O)CC(O)CC(O)CCc1ccccc1 (centres unmarked) [Compound 1, Ethyl 3,5-dihydroxy-7-phenylheptanoate] :: satisfied
4. CCOC(=O)CC(O)CC(O)CCc1ccc(Cl)cc1 (centres unmarked) :: satisfied
5. CCOC(=O)CC(O)CC(O)CCc1c(C)ccc2ccccc12 (centres unmarked) :: not satisfied

*Q* Quick check: does CCOC(=O)CC(O)CC(O)CCc1c(C)ccc2c1CCCC2 (centres unmarked) have I50 (concentration which gave approximately 50% inhibition of cholesterol biosynthesis) greater than or equal to 2 µg/mL?
*A* not satisfied

*Q* Do the same for CCOC(=O)CC(O)CC(O)CCCc1cccc2ccccc12 (centres unmarked) please
*A* satisfied

*Q* CCOC(=O)CC(O)CC(O)C=Cc1ccccc1 (centres unmarked) , same question.
*A* satisfied

###

Provide the reported I50 (concentration which gave approximately 50% inhibition of cholesterol biosynthesis) of each item.
- SYSTEM: cholesterol biosynthesis (crude enzyme extracted from rat liver)
- ASSAY REMARKS: inhibition of cholesterol biosynthesis by crude enzyme extracted from rat liver (radioactive acetic acid, 37° C., 60 minutes; cholesterol precipitated with digitonin, radioactivity measured)
- Assay type: biochemical

These solved cases illustrate the format of a correct answer.
1) CCOC(=O)CC(O)CC(O)COc1ccccc1Cl (stereo not drawn) [Compound 10] :: 5 to 15.2 µg/mL
2) CCOC(=O)CC(O)CC(O)C(C)Oc1ccccc1 (stereo not drawn) [Compound 9, Ethyl 3,5-dihydroxy-6-phenoxyheptanoate] :: 23 to 50 µg/mL

*Q* For the molecule shown here, CCOC(=O)C(C)(C)Oc1ccc(Cl)cc1 [Clofibrate, clofibrate, reference compound] , give the reported I50 (concentration which gave approximately 50% inhibition of cholesterol biosynthesis).
*A* 250 to 300 µg/mL
